Provide the reported Inhibition of each item.
tested on: HepG2; test: GSK_TCMDC: Percent inhibition of human HepG2 cell line. Test compounds present at 10uM.; format: functional

In: GET /values?readout=Inhibition&item= Cc1cc(Nc2cccc(C(F)(F)F)c2)nc2ccc(NC(=O)c3ccc(=O)[nH]c3)cc12
Out: 21%

In: Name the reported Inhibition value associated with the molecule NCC1CCCN1Cc1ccc(-c2ccc(-c3nc4cc(C(F)(F)F)ccc4[nH]3)s2)cc1.O=C(O)C(F)(F)F (centres undefined)
Out: 31%

In: Given the molecule CC(O)C1CCCCN1C(=O)c1cccc(-c2cccc(-c3nc4cc(C(F)(F)F)ccc4[nH]3)c2)c1 (centres undefined) , what is its reported Inhibition?
Out: 32%

In: For O=C(Nc1cccc(CN2CCCN(Cc3cccc(Cl)c3)CC2)c1)c1ccc(Br)cc1.O=C(O)C(F)(F)F , what is its reported Inhibition?
Out: 38%

In: # input molecule: Cl.NC(=O)c1cccc(Nc2nccc(Nc3ccc(Oc4ccc5ccccc5c4)cc3)n2)c1 ; wanted: its Inhibition
Out: 15%

In: Entry CC(C)(C)c1ccc(CN2CCC(NC(=O)c3ccc(-c4ccccc4F)s3)CC2)cc1.O=C(O)C(F)(F)F : reported Inhibition = ?
Out: 36%

In: Dear colleague, I am looking for the recorded Inhibition of the following molecule: Clc1ccc2c(NN=Cc3cccnc3)ccnc2c1
Out: 0%

In: Query: Inhibition; subject: CN(C)CCCn1c(C(=O)OC(c2ccccc2)c2ccccc2)cc2cc(OCc3ccccc3)ccc21
Out: 12%

In: Name the reported Inhibition value associated with the molecule CCNC[C@H]1CCCN1CCOc1ccc(-n2cnc3cc(-c4ccc(Cl)cc4)sc3c2=O)cc1OC.O=C(O)C(F)(F)F
Out: 53%

In: Looking for the measured Inhibition of O=C(Nc1ccon1)c1cc(-c2cccnc2)nc2ccc(Br)cc12 , can you help?
Out: 7%

In: I'd like to know its Inhibition. The molecule in question is CC(C)C[C@@H](C(=O)N[C@H](C(=O)Nc1nccs1)C(C)(C)C)[C@H](CCC(F)(F)F)N(O)C=O
Out: 11%

In: Would you kindly share the measured Inhibition for COc1cc(-c2cc3cc(Cl)c(Cl)cc3[nH]2)ccc1C(=O)NCCC1CCCN1C.O=C(O)C(F)(F)F (centres undefined) ?
Out: 20%

In: Using the record for N#Cc1cccc(C(=O)Nc2ccc(-c3cccc(CN4CCC(O)CC4)c3)cc2)c1.O=C(O)C(F)(F)F , report its Inhibition.
Out: 33%

In: Fill in the blank: the reported Inhibition of Cc1cc(NC(=O)Nc2ccc3ccn(C)c3c2)c2ccccc2n1 is ____.
Out: 11%

In: Field request: Inhibition | item: Cc1ccc(NC(=O)Nc2ccc(Cl)c(C(F)(F)F)c2)cc1-c1ccc(C(=O)NCCN2CCOCC2)cc1
Out: 52%

In: Returns the measured Inhibition for the input molecule. Input: CCOc1ccc(C(=O)Nc2cc(Br)c3c(c2)CNCC3)cc1C(F)(F)F.Cl
Out: 15%

In: Name the recorded Inhibition for O=C(/C=C/c1ccc(Cl)c(Cl)c1)N1CCN(C(=O)Nc2cccc(C(F)(F)F)c2)CC1 .
Out: 53%

In: I am curious: what Inhibition value has been reported for CCCCCc1ccc(NC(=O)Nc2ccc(Cn3ncc(N4CCCNCC4)c(Cl)c3=O)cc2)cc1.O=C(O)C(F)(F)F ?
Out: 15%

In: # lookup: Inhibition of O=C(NC1CCCCC1)N(Cc1ccc(-c2ccc(CNC3CCCC3)cc2)cc1)C1CCN(Cc2ccccc2)CC1.O=C(O)C(F)(F)F
Out: 31%

Source of measurements: ChEMBL document CHEMBL1157539
